# target desc: L7Ae (Archaeoglobus fulgidus, UniProt O29494 2-119)
# Sequence (O29494 2-119): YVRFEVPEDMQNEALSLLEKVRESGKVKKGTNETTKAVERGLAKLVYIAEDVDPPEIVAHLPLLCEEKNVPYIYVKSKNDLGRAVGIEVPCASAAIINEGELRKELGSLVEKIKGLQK
# experimental protocol: SPR (Biacore T200, RNA captured, protein analyte); SPR running buffer: 10 mM HEPES pH 7.4, 150 mM NaCl, 0.05% Surfactant P20, 1 mM MgCl2, 0.25 mM TCEP, 0.1 mg/ml BSA, 25 ug/ml yeast tRNA, 25 C; RNA captured by its 3' docking sequence on biotinylated 2'-OMe RNA
# recorded conditions: protein: recombinant; tags: N-term Twin-Strep-tag; C-term 6xHis
measurement label: binding result

CS1-M2b (structured_RNA) RNA: GGUGGCAAAGAAAGGCGAAAGCCUUGUGAGGCCAUCAAAUCGACGAAAGACACAGAACG : binds
CS1-M2a (structured_RNA) RNA: GGUGGCAUAGAAAGGCGAAAGCCUUGUGAGGCCAUCAAAUCGACGAAAGACACAGAACG : binds
CS2-M4 (structured_RNA) RNA: GGAUGCAGAGAACGAAAGUUCCAUGCCGCAUCCAAAUCGACGAAAGACACAGAACG : binds
